Reference for the values: the supplement of paper PMC3334620

In this section, each of the sequences is paired with its reported PBM E-score.
- experimental-system: Ylr278c (UniProt Q05854)
- Sequence (Q05854 whole entry): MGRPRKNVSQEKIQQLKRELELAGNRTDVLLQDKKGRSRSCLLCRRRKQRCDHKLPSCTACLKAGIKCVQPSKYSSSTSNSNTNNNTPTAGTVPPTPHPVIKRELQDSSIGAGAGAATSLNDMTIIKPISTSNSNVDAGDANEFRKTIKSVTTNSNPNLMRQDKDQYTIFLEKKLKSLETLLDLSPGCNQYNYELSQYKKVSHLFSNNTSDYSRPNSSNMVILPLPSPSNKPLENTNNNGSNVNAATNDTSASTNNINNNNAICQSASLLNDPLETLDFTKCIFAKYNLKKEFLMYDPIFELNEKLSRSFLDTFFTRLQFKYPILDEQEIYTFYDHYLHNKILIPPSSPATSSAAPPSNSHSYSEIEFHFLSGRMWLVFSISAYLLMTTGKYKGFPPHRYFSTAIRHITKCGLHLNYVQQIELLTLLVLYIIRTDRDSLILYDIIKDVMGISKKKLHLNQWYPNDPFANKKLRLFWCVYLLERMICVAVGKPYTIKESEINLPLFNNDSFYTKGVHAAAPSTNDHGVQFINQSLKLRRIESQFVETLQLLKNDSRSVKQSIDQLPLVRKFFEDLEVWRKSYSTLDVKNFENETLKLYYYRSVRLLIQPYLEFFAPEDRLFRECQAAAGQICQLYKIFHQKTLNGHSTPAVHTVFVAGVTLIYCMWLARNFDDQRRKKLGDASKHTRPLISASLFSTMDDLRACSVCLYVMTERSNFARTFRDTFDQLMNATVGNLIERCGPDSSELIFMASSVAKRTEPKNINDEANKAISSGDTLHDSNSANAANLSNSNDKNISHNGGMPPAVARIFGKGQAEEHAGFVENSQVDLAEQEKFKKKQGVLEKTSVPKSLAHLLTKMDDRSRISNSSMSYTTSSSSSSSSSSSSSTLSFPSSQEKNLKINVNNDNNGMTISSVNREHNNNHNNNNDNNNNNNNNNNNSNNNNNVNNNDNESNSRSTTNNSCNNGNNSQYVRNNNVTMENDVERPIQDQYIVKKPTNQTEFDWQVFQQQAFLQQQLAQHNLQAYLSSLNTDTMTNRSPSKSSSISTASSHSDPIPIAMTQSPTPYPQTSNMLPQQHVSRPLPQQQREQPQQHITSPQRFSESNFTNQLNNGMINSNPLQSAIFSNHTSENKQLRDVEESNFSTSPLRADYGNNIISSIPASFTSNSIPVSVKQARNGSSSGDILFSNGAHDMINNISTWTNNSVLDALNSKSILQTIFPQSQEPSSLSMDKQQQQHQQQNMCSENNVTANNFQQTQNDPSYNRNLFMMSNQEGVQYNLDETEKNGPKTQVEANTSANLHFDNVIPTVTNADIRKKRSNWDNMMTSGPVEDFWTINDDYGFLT
- protocol-summary: PBM E-score (8-mer binding enrichment) (E-score (-0.5 to 0.5)); higher = stronger / more preferred TF binding
- measurement-parameters: protein concentration: 200 nM; construct: GST-DNA-binding domain
In all, about 33,000 sequences were measured (“E-score (-0.5 to 0.5)”: median about -0.054, highest 2% from about 0.39 on). Shown is part of a subset that was picked to be rich in the highest values.

These recorded examples may help you get a feel for the data.
INSERT INTO assay_data (seq_text, reported_result) VALUES
  ('GGGATGAC', 0.0341),
  ('CCACGGAC', 0.272),
  ('CTCGGAGC', 0.431),
  ('CGTTGGAA', -0.0729),
  ('CAGATCTA', -0.168),
  ('ACAGGCCG', 0.156);

Q: // returns reported PBM E-score for input `CCACGGAA`
Result: 0.34

Q: Same lookup for `CGGACCCG` , please.
Result: 0.394

Q: Same lookup for `GGGACCGA` , please.
Result: 0.164

Q: Same lookup for `ACCCACAA` , please.
Result: 0.00936

Q: Same lookup for `CCGGATAC` , please.
Result: 0.384

Q: Same lookup for `ATCGGGGC` , please.
Result: 0.296

Q: Same lookup for `AGCGCGTA` , please.
Result: -0.109

Q: Same lookup for `ATCGGTGG` , please.
Result: 0.13

----------
- experimental-system: Ylr278c (UniProt Q05854)
- protocol-summary: PBM E-score (8-mer binding enrichment) (E-score (-0.5 to 0.5)); higher = stronger / more preferred TF binding
- measurement-parameters: protein concentration: 200 nM; construct: GST-DNA-binding domain
Over roughly 33,000 sequences, “E-score (-0.5 to 0.5)” has its median near -0.054; the highest 2% begin near 0.39. The sample holds the highest values, similar sequences and a random draw of the others, so the mix is not that of the screen.
In this section, each of the sequences is paired with its reported PBM E-score.
Just the number, please, no unit after it.

These recorded examples may help you get a feel for the data.
INSERT INTO measurements (seq_text, measurement_kind, reported_result) VALUES
  ('TGCGGAAA', 'PBM E-score', 0.334),
  ('TCTCCGAA', 'PBM E-score', 0.455),
  ('ACGACACC', 'PBM E-score', 0.0263),
  ('GGCCGGAC', 'PBM E-score', 0.419),
  ('AGCCGGAT', 'PBM E-score', 0.404);

Q: Checklist item: PBM E-score tested on Ylr278c (UniProt Q05854), entry `ATCCCGGG` , value?
Result: 0.392

Q: Same lookup for `ACTAGCGA` , please.
Result: -0.0813

Q: Same lookup for `GGACCAAA` , please.
Result: 0.187

Q: Same lookup for `ACCGGAAC` , please.
Result: 0.428

Q: Same lookup for `ATCCCCTG` , please.
Result: -0.16

Q: Same lookup for `GTCAACTA` , please.
Result: -0.084

Q: Same lookup for `ACTCCAAG` , please.
Result: -0.198

Q: Same lookup for `TCTCCAAA` , please.
Result: -0.126

Q: Same lookup for `AGCCGTAT` , please.
Result: -0.0908

Q: Same lookup for `GGCCGCAC` , please.
Result: 0.23

Q: Same lookup for `ACCGGAAA` , please.
Result: 0.369

Q: Same lookup for `ATTGGCCC` , please.
Result: -0.211

Q: Same lookup for `ACGGCCGA` , please.
Result: 0.246

Q: Same lookup for `AGCGGAAG` , please.
Result: 0.305

Q: Same lookup for `ACCACTTA` , please.
Result: -0.0492

Q: Same lookup for `CGCGGAAC` , please.
Result: 0.368

Q: Same lookup for `ACGCCGAC` , please.
Result: 0.343

Q: Same lookup for `ACATTGGG` , please.
Result: -0.122

Q: Same lookup for `TAGTTTCA` , please.
Result: -0.0254

Q: Same lookup for `CCGGCCGA` , please.
Result: 0.415
